Provenance of the data: patent US11623919B2

tested system: P2X7 receptor (Mus musculus, UniProt Q9Z1M0)
Construct: mP2X7 (IC50; nM); other: mP2X7; HEK-293 cells stably transfected with P2X7 receptor, Bz-ATP at EC80, Fluo-8 NW; potency
Sequence (Q9Z1M0 whole entry): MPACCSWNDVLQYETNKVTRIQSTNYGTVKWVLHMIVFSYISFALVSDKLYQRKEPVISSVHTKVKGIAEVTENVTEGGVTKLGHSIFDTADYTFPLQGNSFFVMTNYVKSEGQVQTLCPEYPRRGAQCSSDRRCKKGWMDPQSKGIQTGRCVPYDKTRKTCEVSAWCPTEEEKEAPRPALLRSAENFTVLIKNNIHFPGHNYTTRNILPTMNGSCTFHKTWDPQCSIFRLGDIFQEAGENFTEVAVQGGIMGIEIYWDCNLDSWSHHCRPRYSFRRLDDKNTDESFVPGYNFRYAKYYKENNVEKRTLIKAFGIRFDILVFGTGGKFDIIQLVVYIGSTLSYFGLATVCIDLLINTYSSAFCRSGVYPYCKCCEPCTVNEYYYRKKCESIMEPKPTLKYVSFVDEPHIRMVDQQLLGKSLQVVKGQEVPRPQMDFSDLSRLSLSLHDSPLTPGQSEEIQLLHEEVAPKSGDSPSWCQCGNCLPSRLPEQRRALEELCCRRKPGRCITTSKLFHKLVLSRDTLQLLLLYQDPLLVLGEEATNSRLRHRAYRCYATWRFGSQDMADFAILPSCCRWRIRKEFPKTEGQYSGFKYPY
measurement description: Screen Quest Fluo-8 No Wash Calcium Assay (Bz-ATP evoked Ca2+ influx, FLIPR)
Assay type: cell-based
measurement context: mP2X7; HEK-293 cells stably transfected with P2X7 receptor, Bz-ATP at EC80, Fluo-8 NW; potency ranges A-D
quantity measured: IC50

>>> result("Cc1noc(Cn2c(CC3CCC(F)(F)CC3)noc2=O)n1 [Example 197]")
"> 10000 nM"
>>> result("O=c1onc(Cc2ccc(F)cc2)n1Cc1ccc(Cl)cc1Cl [Example 9]")
"> 10000 nM"
>>> result("O=c1onc(Cc2c(F)cccc2Cl)n1Cc1ccoc1 [Example 44]")
"> 10000 nM"
>>> result("O=c1onc(Cc2ccc(F)cc2F)n1Cc1ccc(F)cc1 [Example 80]")
"> 10000 nM"
>>> result("COc1cc(Cn2c(Cc3ccc(F)cc3)noc2=O)cc(OC)c1 [Example 4]")
"> 10000 nM"
>>> result("O=c1onc(Cc2ccc(F)cc2Cl)n1Cc1ccc(F)cc1 [Example 73]")
"1000 to 10000 nM"
>>> result("O=c1onc(Cc2c(F)cccc2Cl)n1CC1CC2C(C1)C2(F)F (stereo not shown) [Example 173]")
"200 to 1000 nM"
>>> result("O=c1onc(Cc2ccc(F)cc2)n1Cc1cc(F)ccc1Br [Example 5]")
"> 10000 nM"
>>> result("Cc1noc(C)c1Cc1noc(=O)n1Cc1c(F)cccc1Cl [Example 209]")
"> 10000 nM"
>>> result("O=c1onc(Cc2ccc(F)cc2F)n1CC1CCC(F)(F)CC1 [Example 153]")
"200 to 1000 nM"
>>> result("O=c1onc(CC2CCC(F)(F)CC2)n1Cc1ncc(F)cn1 [Example 190]")
"> 10000 nM"
>>> result("O=c1onc(Cc2cccc(C(F)(F)F)c2Cl)n1CC1CCC(F)(F)CC1 [Example 155]")
"200 to 1000 nM"
>>> result("Cc1nc(C(F)(F)F)ccc1Cn1c(CC2CCC(F)(F)CC2)noc1=O [Example 192]")
"> 10000 nM"
>>> result("O=c1onc(Cc2ccncc2)n1CC1CCCCC1 [Example 111]")
"200 to 1000 nM"
>>> result("O=c1onc(Cc2c(F)cccc2Cl)n1Cc1cnco1 [Example 40]")
"> 10000 nM"
>>> result("COc1cccc(Cc2noc(=O)n2Cc2c(F)cccc2Cl)c1 [Example 7]")
"1000 to 10000 nM"
>>> result("O=c1onc(Cc2cccc(F)c2)n1CC1CCC(F)(F)CC1 [Example 151]")
"1000 to 10000 nM"
>>> result("Cc1ncsc1Cn1c(CC2CCC(F)(F)CC2)noc1=O [Example 200]")
"200 to 1000 nM"
>>> result("CC(c1ccc(F)cc1)n1c(CC2CCCCC2)noc1=O (stereo not shown) [Example 163]")
"1000 to 10000 nM"
>>> result("O=c1onc(Cc2cccc(F)c2)n1Cc1c(F)cccc1Cl [Example 81]")
"1000 to 10000 nM"
>>> result("O=c1onc(Cc2ccc(Cl)cc2Cl)n1Cc1c(F)cccc1Cl [Example 17]")
"1000 to 10000 nM"
>>> result("O=c1onc(Cc2cccc(C(F)(F)F)c2Cl)n1CC1CCCCC1 [Example 113]")
"1000 to 10000 nM"
>>> result("O=c1snc(Cc2c(F)cccc2Cl)n1CC1CCCCC1 [Example 140]")
"1000 to 10000 nM"
>>> result("Cn1c(Cc2c(F)cccc2Cl)noc1=O [Example 174]")
"> 10000 nM"
>>> result("Cc1cc(Cn2c(Cc3c(F)cccc3Cl)noc2=O)n(C)n1 [Example 46]")
"> 10000 nM"
>>> result("O=c1onc(Cc2ccccc2)n1Cc1c(F)cccc1Cl [Example 6]")
"1000 to 10000 nM"
>>> result("O=c1onc(Cc2cccc(Cl)c2Cl)n1CC1CCC(F)(F)CC1 [Example 156]")
"200 to 1000 nM"
>>> result("COc1cccc(Cc2noc(=O)n2Cc2ccc(F)cc2)c1 [Example 109]")
"> 10000 nM"
>>> result("O=c1onc(Cc2c(F)cccc2Cl)n1Cc1ccccn1 [Example 62]")
"> 10000 nM"
>>> result("O=c1onc(Cc2c(F)cccc2Cl)n1CC1CCOCC1 [Example 93]")
"1000 to 10000 nM"
>>> result("O=c1onc(Cc2c(F)cccc2Cl)n1CC1CCCOC1 (stereo not shown) [Example 89]")
"> 10000 nM"
>>> result("O=c1onc(CN2CCC(F)(F)CC2)n1Cc1c(F)cccc1Cl [Example 220]")
"200 to 1000 nM"
>>> result("Cc1noc(C)c1Cc1noc(=O)n1CC1CCCCC1 [Example 210]")
"1000 to 10000 nM"
>>> result("Cc1ncccc1Cc1noc(=O)n1Cc1c(F)cccc1Cl [Example 217]")
"> 10000 nM"
>>> result("COCn1c(Cc2c(F)cccc2Cl)noc1=O [Example 100]")
"> 10000 nM"
>>> result("CC1CCCCC1Cn1c(Cc2c(F)cccc2Cl)noc1=O (stereo not shown) [Example 87]")
"200 to 1000 nM"
>>> result("O=c1onc(Cc2c(F)cccc2Cl)n1CCCN1CCC(F)(F)CC1 [Example 182]")
"> 10000 nM"
>>> result("Cc1ncsc1Cn1c(Cc2c(F)cccc2Cl)noc1=O [Example 31]")
"> 10000 nM"
>>> result("O=c1onc(Cc2c(F)cccc2Cl)n1Cc1ccc(C(F)(F)F)o1 [Example 66]")
"1000 to 10000 nM"
>>> result("O=c1onc(CC2CCC(F)(F)CC2)n1Cc1cccc(C(F)(F)F)c1Cl [Example 167]")
"1000 to 10000 nM"
